Attribute: activation
# target-under-test: Muscarinic acetylcholine receptor M1 (Homo sapiens)
# method-summary: human M1 muscarinic receptor agonists, primary screen, Fluo-8 calcium fluorescence, CHO-K1 cells, HTS (AID 588814);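 also: peak over basal fluorescence ratio within a 140 s kinetic read after compound addition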
# applied-conditions: CHO-K1 hM1, Fluo-8 calcium fluorescence, agonist mode; at 3 µM; stronger effect = higher value; 0% DMSO, 100% acetylcholine EC100
The whole screen tested about 360,000 compounds, of which about 1,200 (0.33%) were called active. The list comes from a sample in which actives are over-represented; it also holds close analogues and randomly drawn compounds.

{"columns": ["mol", "activation [%]"],
 "data": [
  ["O=C(Cc1ccc(Cl)cc1)NC(=S)Nc1ccccc1O", 52.4],
  ["O=C(COc1ccc(Cl)cc1)NC(=S)Nc1ccccc1N1CCOCC1", 0.8],
  ["COc1ccc(N/N=C2/CCCCC2=O)cc1", -3.78],
  ["Cc1ccccc1N/C(SCc1ccc(Cl)cc1)=C(/C#N)C(N)=O", -7.61],
  ["CCOC(=O)N(Cc1ccccc1)C1CC1", -2.66],
  ["Cc1ccccc1NC(=S)NC(=O)Cc1ccc(Cl)cc1", 29.9],
  ["O=C(CCN1CCN(c2ccccc2)CC1)NNC(=S)Nc1ccccc1", -3]
]}
